- Target or test system: SUV39H1 (Homo sapiens)
- Sequence (O43463 whole entry, species assumed): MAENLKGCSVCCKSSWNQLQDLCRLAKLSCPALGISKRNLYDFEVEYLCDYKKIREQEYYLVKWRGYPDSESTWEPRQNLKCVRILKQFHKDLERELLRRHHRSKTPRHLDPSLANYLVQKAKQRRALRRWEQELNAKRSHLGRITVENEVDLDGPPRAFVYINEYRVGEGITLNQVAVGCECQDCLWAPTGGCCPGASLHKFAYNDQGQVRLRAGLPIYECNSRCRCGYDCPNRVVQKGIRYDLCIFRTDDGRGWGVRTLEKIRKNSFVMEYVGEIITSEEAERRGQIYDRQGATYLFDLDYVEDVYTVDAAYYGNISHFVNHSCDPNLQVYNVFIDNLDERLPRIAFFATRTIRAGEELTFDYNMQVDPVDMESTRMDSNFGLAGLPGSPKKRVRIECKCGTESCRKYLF
Recorded metric: IC50 (µM)

INSERT INTO assay_data (molecule, unit_tag, obs_value) VALUES
  ('Cc1ccc(Nc2ncc3c(n2)N(C)C(=O)N(c2cccc(N)c2)C3)cn1 [LZQ-02-023-01]', 'µM', 18.6);

* * *

- Test summary: Plasma pharmacokinetics after IV and PO administration
- Format: in vivo, male Sprague–Dawley rats
- Condition details: male, Sprague-Dawley, rat, plasma, po, 10 mg/kg, PO 10 mg/kg, 2 h; read-out: Plasma concentration, mean
Recorded metric: concentration at 2 h (ng/mL)

INSERT INTO assay_data (compound, obs_value) VALUES
  ('Cc1ccc(Nc2ncc3c(n2)N(C)C(=O)N(c2cccc(N)c2)C3)cn1 [LZQ-02-023-01]', 6.5);

Origin of the recorded values: paper PMC12752606
